target: T1, mouse MMP-2 (Mus musculus, UniProt P33434); assay: Enzyme inhibition assay (single point inhibition, IC50/Ki,app), substrate M-2350; format: biochemical; conditions: small-scale sFab; Table 10
T1 construct: purchased R&D Systems 924-MP-010
T1 sequence (P33434 110-662): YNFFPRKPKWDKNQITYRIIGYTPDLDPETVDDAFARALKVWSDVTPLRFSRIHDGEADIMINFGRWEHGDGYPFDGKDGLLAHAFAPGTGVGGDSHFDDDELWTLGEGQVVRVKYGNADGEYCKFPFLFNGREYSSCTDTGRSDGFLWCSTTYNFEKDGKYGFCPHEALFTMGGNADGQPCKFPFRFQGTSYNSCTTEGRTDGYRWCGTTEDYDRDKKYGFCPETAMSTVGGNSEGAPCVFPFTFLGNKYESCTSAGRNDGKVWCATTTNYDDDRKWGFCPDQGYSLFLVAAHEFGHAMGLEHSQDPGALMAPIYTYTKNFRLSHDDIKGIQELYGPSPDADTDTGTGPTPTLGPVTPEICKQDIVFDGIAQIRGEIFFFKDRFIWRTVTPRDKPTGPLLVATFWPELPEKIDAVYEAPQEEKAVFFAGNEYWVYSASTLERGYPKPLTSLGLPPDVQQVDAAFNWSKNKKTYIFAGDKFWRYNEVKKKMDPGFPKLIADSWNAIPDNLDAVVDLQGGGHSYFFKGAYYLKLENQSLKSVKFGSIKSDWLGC
Assay endpoint: pKi
In textbook form, pKi equals minus log to base ten of the concentration in mol/L.

Req: What measured pKi goes with M0256-D11: affinity matured variant of M237-D02, sFab (antibody, V domains shown) VH: EVQLLESGGGLVQPGGSLRLSCAASGFTFSHYDMWWVRQAPGKGLEWVSVIYSSGGPTFYADSVKGRFTISRDNSKNTLYLQMNSLRAEDTAVYYCAKDRAYGDYVGWNGFDYWGQGTLVTVSS VL: QDIQMTQSPATLSLSPGERATLSCRASQSISSFLAWYQQKPGQAPRLLIYDASYRATGIPARFSGSGSGTDFTLTISSLEPEDYAVYYCQQRGNWPITFGQGTRLEIK ?
Resp: 8.38

Req: So what does the record say about pKi for M0275-D03: affinity matured variant of M237-D02, sFab (antibody, V domains shown) VH: EVQLLESGGGLVQPGGSLRLSCAASGFTFSQYDMWWVRQAPGKGLEWVSVIYPSGTTFYADSVKGRFTISRDNSKNTLYLQMNSLRAEDTAVYYCAKDRAYGDYVGWNGFDYWGQGTLVTVSS VL: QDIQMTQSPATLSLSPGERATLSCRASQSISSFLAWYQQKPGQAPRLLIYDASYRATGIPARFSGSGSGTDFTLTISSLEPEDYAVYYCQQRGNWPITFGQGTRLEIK ?
Resp: 8.27
